assay: Inhibition of Vibrio cholerae alpha-carbonic anhydrase preincubated for 15 mins by stopped-flow CO2 hydration assay
Consider the following molecules and their measured Ki readings.
Please answer using the number first and the unit second.

Some entries whose results are on file:
1. S=C(S)S; 0.088 mM
2. I [IODIDE]; 9.73 mM
3. O=[N+]([O-])O; 0.67 mM
4. O=[Se](=O)(O)O; 60.8 mM

Give the measured Ki for Br [BROMIDE]
28 mM
